src = ChEMBL document CHEMBL3885861

organism: Rattus norvegicus; assay: Open TG-GATES - Regimen: Daily Repeat; assay type: toxicity, organism-based, Sprague-Dawley; parameters: regimen Daily Repeat, gender Male, age 6 weeks; details: in vivo, po, 0 mg/kg, […], tissue Plasma, route gavage, dose level Control, time 28 day

compound	display_unit	ALT
Cc1cccc(C)c1OCC(C)N (centres undefined)	IU/L	37.2
C[C@H]1C(=O)O[C@@H]2CCN3CC=C(COC(=O)[C@](C)(O)[C@]1(C)O)[C@H]23	IU/L	53
O=C1CN(/N=C/c2ccc([N+](=O)[O-])o2)C(=O)N1	IU/L	32.8
C[C@H]1O[C@H](O[C@H]2[C@H](O)[C@@H](O)[C@@H](O[C@H]3[C@H](O)[C@@H](O)C(O)O[C@@H]3CO)O[C@@H]2CO)[C@H](O)[C@@H](O)[C@@H]1N[C@H]1C=C(CO)[C@@H](O)[C@H](O)[C@H]1O (some centres undefined)	IU/L	43.4
CCOC(=O)C(C)(C)Oc1ccc(Cl)cc1 [CLOFIBRATE]	IU/L	31.2
Cn1cc[nH]c1=S	IU/L	40.4
OCCN1CCN(CCCN2c3ccccc3Sc3ccc(C(F)(F)F)cc32)CC1	IU/L	32.2
C=C(C)[C@H]1Cc2c(ccc3c2O[C@@H]2COc4cc(OC)c(OC)cc4[C@@H]2C3=O)O1	IU/L	32.2
O=[N+]([O-])c1ccc(O)c([N+](=O)[O-])c1	IU/L	30.8

---

organism: Rattus norvegicus; assay: Open TG-GATES - Regimen: Single; format: toxicity, organism-based, Sprague-Dawley; parameters: regimen Single, gender Male, age 6 weeks; conditions: in vivo, po, 0 mg/kg, 6 h, tissue Blood, route gavage, dose level Control
quantity_kind: Lym (%)

> print(dat)
                                 smiles.str  quantity.kind  readout.value
1     O=[N+]([O-])c1ccc(O)c([N+](=O)[O-])c1            Lym           77.2
2  C[C@H]1C(=O)O[C@@H]2CCN3CC=C(COC(=O)[C@](C)(O)[C@]1(C)O)[C@H]23            Lym             81
3         Cc1ccc2cc3c(ccc4ccccc43)c3c2c1CC3            Lym             69
4  OCCN1CCN(CCCN2c3ccccc3Sc3ccc(C(F)(F)F)cc32)CC1            Lym           75.8

---

organism: Rattus norvegicus; assay: Open TG-GATES - Regimen: Daily Repeat; assay type: toxicity, organism-based, Sprague-Dawley; parameters: regimen Daily Repeat, gender Male, age 6 weeks; details: in vivo, po, 0 mg/kg, […], tissue Blood, route gavage, dose level Control, time 14 day
Below is a list of entries, each paired with its recorded MCH value.

molecule	MCH (pg)
O=[N+]([O-])c1ccc(O)c([N+](=O)[O-])c1	20.9
OCCN1CCN(CCCN2c3ccccc3Sc3ccc(C(F)(F)F)cc32)CC1	20.3
C[C@H]1O[C@H](O[C@H]2[C@H](O)[C@@H](O)[C@@H](O[C@H]3[C@H](O)[C@@H](O)C(O)O[C@@H]3CO)O[C@@H]2CO)[C@H](O)[C@@H](O)[C@@H]1N[C@H]1C=C(CO)[C@@H](O)[C@H](O)[C@H]1O (some centres undefined)	20.3
C[C@H]1C(=O)O[C@@H]2CCN3CC=C(COC(=O)[C@](C)(O)[C@]1(C)O)[C@H]23	20.7
Cc1cccc(C)c1OCC(C)N (centres undefined)	21
Cn1cc[nH]c1=S	20.5
CCOC(=O)C(C)(C)Oc1ccc(Cl)cc1 [CLOFIBRATE]	20.3
C=C(C)[C@H]1Cc2c(ccc3c2O[C@@H]2COc4cc(OC)c(OC)cc4[C@@H]2C3=O)O1	20.5
O=C1CN(/N=C/c2ccc([N+](=O)[O-])o2)C(=O)N1	20.3
